Target: DmelOR56a + DmelOrco (Drosophila melanogaster, UniProt Q9V8Y7)
Construct: stoichiometry unknown; with Odorant receptor coreceptor
Sequence (Q9V8Y7 1-419): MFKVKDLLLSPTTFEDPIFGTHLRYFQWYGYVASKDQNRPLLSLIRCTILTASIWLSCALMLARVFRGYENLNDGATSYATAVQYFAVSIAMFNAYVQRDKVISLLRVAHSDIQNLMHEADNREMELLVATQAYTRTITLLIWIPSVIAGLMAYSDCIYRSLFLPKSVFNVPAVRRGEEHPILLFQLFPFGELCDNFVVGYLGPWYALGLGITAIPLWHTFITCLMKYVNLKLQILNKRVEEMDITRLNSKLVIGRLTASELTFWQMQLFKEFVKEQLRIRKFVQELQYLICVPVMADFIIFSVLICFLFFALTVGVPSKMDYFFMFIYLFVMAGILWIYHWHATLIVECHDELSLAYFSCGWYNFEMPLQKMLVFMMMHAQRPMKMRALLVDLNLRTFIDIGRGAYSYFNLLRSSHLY
Sequence (Q9VNB5 1-486 partner): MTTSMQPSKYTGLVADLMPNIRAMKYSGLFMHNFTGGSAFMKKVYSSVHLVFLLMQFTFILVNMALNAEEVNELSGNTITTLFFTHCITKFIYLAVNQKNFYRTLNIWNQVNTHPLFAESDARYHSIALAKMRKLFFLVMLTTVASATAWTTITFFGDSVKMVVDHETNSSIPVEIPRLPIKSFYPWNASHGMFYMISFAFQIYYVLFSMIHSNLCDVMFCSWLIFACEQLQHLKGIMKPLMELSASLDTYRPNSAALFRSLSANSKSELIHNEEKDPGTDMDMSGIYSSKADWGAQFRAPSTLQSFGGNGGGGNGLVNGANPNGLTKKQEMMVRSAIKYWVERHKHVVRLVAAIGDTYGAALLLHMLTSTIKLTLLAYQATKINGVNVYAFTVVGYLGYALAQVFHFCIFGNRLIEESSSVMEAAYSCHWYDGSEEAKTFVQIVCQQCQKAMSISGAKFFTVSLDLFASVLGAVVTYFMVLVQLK
Test: Fluo-4AM calcium fluorescence, plate reader
Conditions: agonist of OR; OR and Orco co-expressed
measurementType: EC50 (nM)

moleculeSmiles: C[C@H]1CCC[C@@]2(C)CCCC[C@]12O
measuredOn: DmelOR56a + DmelOrco (Drosophila melanogaster, UniProt Q9V8Y7)
numericResult: 19.1

---

Biological target: DmelOrco (Drosophila melanogaster, UniProt Q9VNB5)
Construct: gene Orco; homomeric channel
Test: Fluo-4AM calcium fluorescence, plate reader
Format: cell-based

moleculeSmiles: CCc1ccc(NC(=O)CSc2nnc(-c3cccnc3)n2CC)cc1
unitText: µM
EC50: 15.3

---

Target: MdesOrco (Mayetiola destructor, UniProt A0A1D8GZG0, A350S/H81F/N133L)
Construct: homomeric channel
Sequence (A0A1D8GZG0 1-466, stated change not applied): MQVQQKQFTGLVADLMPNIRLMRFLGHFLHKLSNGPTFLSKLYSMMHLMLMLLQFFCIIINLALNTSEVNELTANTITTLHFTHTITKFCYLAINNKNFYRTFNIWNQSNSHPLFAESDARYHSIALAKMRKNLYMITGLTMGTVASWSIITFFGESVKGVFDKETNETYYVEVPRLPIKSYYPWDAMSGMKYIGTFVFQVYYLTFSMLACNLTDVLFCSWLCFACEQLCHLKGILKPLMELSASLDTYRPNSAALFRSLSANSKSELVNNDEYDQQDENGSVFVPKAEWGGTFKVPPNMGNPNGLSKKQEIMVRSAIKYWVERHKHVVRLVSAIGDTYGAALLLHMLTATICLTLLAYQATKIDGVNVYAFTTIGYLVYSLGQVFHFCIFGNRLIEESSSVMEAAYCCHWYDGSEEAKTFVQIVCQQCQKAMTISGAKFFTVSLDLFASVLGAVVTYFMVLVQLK
Test: Fluo-4AM calcium fluorescence, plate reader
pEC50: −log10 of the molar value.
measurementType: pEC50

compound: CCc1ccc(NC(=O)CSc2nnc(-c3cccnc3)n2CC)cc1 [VUAA1]
numericResult: 4.60

---

Target: DmelOR56a + AsegOrco (Drosophila melanogaster)
Construct: heterospecific complex: D. melanogaster OR56a (V5 tag) with Agrotis segetum Orco (c-myc tag), TREx/HEK293; with Odorant receptor coreceptor (Agrotis segetum)
Sequence (Q9V8Y7 1-419): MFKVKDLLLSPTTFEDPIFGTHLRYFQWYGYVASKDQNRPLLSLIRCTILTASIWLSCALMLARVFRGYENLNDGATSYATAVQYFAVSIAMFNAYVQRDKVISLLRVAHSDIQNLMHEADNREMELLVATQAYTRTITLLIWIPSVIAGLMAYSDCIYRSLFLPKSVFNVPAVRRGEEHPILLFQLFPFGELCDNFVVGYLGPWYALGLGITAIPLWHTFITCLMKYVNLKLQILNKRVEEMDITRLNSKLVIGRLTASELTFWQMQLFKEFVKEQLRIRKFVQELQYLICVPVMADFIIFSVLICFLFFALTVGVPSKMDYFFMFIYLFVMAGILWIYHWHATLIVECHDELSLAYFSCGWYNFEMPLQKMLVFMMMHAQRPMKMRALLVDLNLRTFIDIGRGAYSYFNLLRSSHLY
Sequence (U5KJY5 2-473 partner limits assumed): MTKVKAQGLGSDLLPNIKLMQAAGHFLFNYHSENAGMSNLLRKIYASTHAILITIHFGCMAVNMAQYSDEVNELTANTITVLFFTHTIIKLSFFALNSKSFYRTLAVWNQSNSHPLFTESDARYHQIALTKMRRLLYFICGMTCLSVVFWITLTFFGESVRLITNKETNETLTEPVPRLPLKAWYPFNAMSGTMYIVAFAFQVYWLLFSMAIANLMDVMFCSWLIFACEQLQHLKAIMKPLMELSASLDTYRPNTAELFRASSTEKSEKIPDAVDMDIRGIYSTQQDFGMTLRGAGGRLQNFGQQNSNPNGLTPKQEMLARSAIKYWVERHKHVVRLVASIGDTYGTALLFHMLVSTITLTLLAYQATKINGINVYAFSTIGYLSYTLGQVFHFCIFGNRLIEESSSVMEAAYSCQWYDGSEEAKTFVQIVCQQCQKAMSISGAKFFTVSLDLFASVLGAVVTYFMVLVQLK
Assay: Fluo-4AM calcium fluorescence, plate reader
Details: agonist of OR; heterospecific Orco co-expressed
pEC50: −log10 of the molar value.
measurementType: pEC50

molecule: C[C@H]1CCC[C@@]2(C)CCCC[C@]12O [geosmin]
numericResult: 7.43

---

Molecular target: MdesOrco (Mayetiola destructor, UniProt A0A1D8GZG0, A350S/C230Q/C408S/H81F/I150T/N133L/T205L)
Construct: homomeric channel
Sequence (A0A1D8GZG0 1-466, stated change not applied): as the sequence (A0A1D8GZG0 1-466, stated change not applied) above
Test: Fluo-4AM calcium fluorescence, plate reader
measurementType: EC50 (µM)

moleculeSmiles: CCc1ccc(NC(=O)CSc2nnc(-c3cccnc3)n2CC)cc1
numericResult: 26.3

Source: paper PMC5823858
